assay: yeast display, Sf9 membrane polyspecificity reagent, FACS + sequencing; frameworks hold sequencing errors
measurementLabel: polyreactivity (PSR sort gate)

Consider the reported polyreactivity (PSR sort gate) for these sequences:
recordSequence	measurementLabel	observedValue
QVQLVESGGGLVQAGGSLRLSCAASGIIFYINAMGWYRQAPGKERELFADISSGDRTYYADSVKGRFTISRDNAKNTVYLQMNSLKPEDTAVYYCAAESYSGFVAGHTSLDDYWGQGTQVTVSS	polyreactivity (PSR sort gate)	low polyreactivity
QVQHEESGGGLVQAGGSLRLSCAASGSIFRGNAMGWYRQAPGNERELVAAITRSGGRTYYADSVKGRFTISRDNAKNTVYLQMNSLKPEDTAVYYCAADYPYGSPTHFDYWGPGTQVTVSS	polyreactivity (PSR sort gate)	high polyreactivity
QVQLVESGGGLVQAGGSLRLSCAASGYIFRQNAMGWYRQAPGKERELVAAITWSGGSTYYADSVKGRFTISRDNAKNTVYLQMNSLKPEDTAVYYCNAYSYVAIRDGGDYWGQGTQVTVSS	polyreactivity (PSR sort gate)	low polyreactivity
QVQLVESGGGLVQAGGSLRLSCAASGFTFWYYTMGWYRQAPGKERELVAAITGRGGTTHYADSVKGRFTISRDNAKNTVYLQMNSLKPEDTAVYYCAARAYRPSLSVVRGGYWGQGTQVTVLS	polyreactivity (PSR sort gate)	high polyreactivity

For each of the sequences below, state polyreactivity (PSR sort gate).
1. QDQLVESGGGIVQAGGSLRLSCAASGRNFILNAMGLYRQAPGKERELVAAITWSGGGTYYADSVKGRFTISRDNAKNTVYLQMNSLKASDSAVYYCNRPAAVGEEDYWGQGTQVTVSS
2. QVQLVDSAGGLVQAGGSLRLSCAASGRTYVVNTRGWSRQAPGKERELVASISSGTTNYADSVKGRFTISRDNAKNTVYLQMNSLKPVDTAVYYCNTDGGDHPTARYGYWGQGTQVTVSS

Ans:
1. low polyreactivity
2. high polyreactivity

====

assay: yeast display, Sf9 membrane polyspecificity reagent, FACS + sequencing; frameworks hold sequencing errors
measurementLabel: polyreactivity (PSR sort gate)

recordSequence	polyreactivity (PSR sort gate)
QVQLVESGGGLVQAGGSLRLSCAASGSIFLEYTMGWYRQAPGKERELVASISWGGGSTYYADSVKGRFTISRDNAKNTVFLQMNSLKPEDTAVYYCNKVGGDPVRGGYDYWGQGTQVTVSS	low polyreactivity
QVQLVESGGGLVQAGGSLRLSCAASGRIFEGYAMGWYRPAPGKQRELVAAISKSGGRTNYADSVKGRFTISRDNAKNTVYLQMNSLKPEDSAVYYCNAGIKYWGSDFFYWGQVTQVTVSS	high polyreactivity
QVQLVESGGGLVQAGGSLRVSCAASGSTCDVNAMGWYRQAPGKERELVAAMSWSDDATYYAYSVKGRFTISRDNAKNTVYVQMNSLKPEDTAVYYCAADGRYGWYYAVYNGEDYWGQGTQVTVSS	high polyreactivity
QVQLVESWGGLVQAGGSRRLSCDASGRTFVTNAMGWYRQARGKERELVAAISGTGGSTYYADSVKGRFTISRDNAKNTVFLHMNRLKPEDTAVYSWAADTYIYGLEYDYWGQGTQVTVSS	low polyreactivity

Q: Given QVQLVESGGGLVQAGGSLRLICPASGSTFQYYAMGWYRQAPGKEREFVAAIRSSGGTTYYADSVKGRFTISRDNAKKTVYLQMNSLKPEDTAVYYCATVVNYPSARYCYWGQGTKVTVSS , state its recorded polyreactivity (PSR sort gate).
Ans: high polyreactivity
